# procedure summary: Pharmacokinetics after single oral dose in BALB/c mice
# Type: in vivo
# test context: male, BALB/c, mouse, plasma, po, 25 mg/kg

smiles entry: O=[N+]([O-])c1ccc(Cn2cc(Cn3c4ccccc4c4nc5ccccc5nc43)nn2)cc1
Cmax / ng/mL: 787

###

# procedure summary: Pharmacokinetics after single oral dose in BALB/c mice
# Assay type: in vivo
# test context: male, BALB/c, mouse, plasma, po, 25 mg/kg

smiles entry: O=[N+]([O-])c1ccc(Cn2cc(Cn3c4ccccc4c4nc5ccccc5nc43)nn2)cc1
Tmax (h): 1

###

# procedure summary: Solubility in DMSO
# Type: physicochemical

molecule: O=[N+]([O-])c1ccc(Cn2cc(Cn3c4ccccc4c4nc5ccccc5nc43)nn2)cc1 [PK2]
solubility: 10000 µg/mL
